The binders listed here are annotated with their pEC50.
Target: T1, dimeric human LTBR-Fc biotinylated (P1AE2401) (human, UniProt P36941 31-227, biotinylated in vitro)
T1 construct: bought from R&D Systems (7538-LR); also called human LTBR ECD; not shown: human IgG1 Fc-Fragment
Assay: direct ELISA
Lab note: report pEC50 as minus log10 of the concentration in molar units, number only.

[
  {
    "binder": "P1AE9452 (antibody, human IgG1, kappa, L234A L235A, V domains shown, human IgG1 PG LALA; from transgenic rabbit immunization; also called LTBR (9452)) VH: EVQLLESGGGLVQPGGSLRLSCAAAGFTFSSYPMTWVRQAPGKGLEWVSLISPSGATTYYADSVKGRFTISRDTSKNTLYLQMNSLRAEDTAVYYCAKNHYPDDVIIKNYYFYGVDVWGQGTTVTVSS VL: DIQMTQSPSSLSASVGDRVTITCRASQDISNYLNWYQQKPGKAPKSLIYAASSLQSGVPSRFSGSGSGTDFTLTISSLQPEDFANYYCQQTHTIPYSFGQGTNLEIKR",
    "observed.result": 9.62
  }
]

Here's the next entry for you.
[ask] Need pEC50 of P1AE1873 (CBE11) (antibody, human IgG1, kappa, L234A L235A, V domains shown) VH: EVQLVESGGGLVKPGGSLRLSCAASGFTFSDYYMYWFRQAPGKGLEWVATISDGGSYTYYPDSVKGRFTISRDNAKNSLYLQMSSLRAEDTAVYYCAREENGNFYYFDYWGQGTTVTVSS VL: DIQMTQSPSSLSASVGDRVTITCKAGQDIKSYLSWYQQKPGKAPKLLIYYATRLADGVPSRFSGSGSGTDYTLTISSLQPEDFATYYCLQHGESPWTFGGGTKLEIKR , thanks.
[reply] 11.55
